TARGET OR SYSTEM: T1, human CD3e (T-cell surface glycoprotein CD3 epsilon chain) (human, UniProt P07766 23-207)
T1 construct: Target of the anti-hCD3e antibodies on human PBMC, Jurkat cells and cells expressing human CD3e; on T cells it is part of the CD3/TCR complex; also called hCD3e; CD3e on human PBMC
ASSAY EXPLANATION: flow cytometry, human PBMC, antibody 1 ug/mL, anti-human IgG Fc-Alexa Fluor647 (1:500), anti-hTcRβ-PerCP (1:30)
Form field: upper left quadrant, percent of cells AF647+ / hTcRβ-PerCP- (one value per entry).
PROPERTY LABEL: upper left quadrant, percent of cells AF647+ / hTcRβ-PerCP- (%)

# BINDER, MEASURED VALUE
records = [
    ("10A4-H3K1-IgG1-LALA (antibody, V domains shown, Humanized; human IgG1 with LALA mutations; also called H3K1 (humanized 10A4)) VH: QVQLVQSGAEVKKPGASVKISCKASGYTFTSYYIHWVRQRPGQRLEFIGWIYPGNVNAKYNEKFKGRATLTTDKSASTAYMELSSLRSEDTAVYFCAIKGGNYDWGQGTLVTVSS VL: DVVMTQSPLSLPVTLGQPASISCQSSQSLLDSDGKTYLNWLQQRPGQSPRRLIYLVSKLGSGVPDRFSGSGSGTDFTLKISRVEAEDVGVYYCWQGTHFPRTFGGGTKVEIK", 14.5),
    ("10A4-H4K1-IgG1-LALA (antibody, V domains shown, Humanized; human IgG1 with LALA mutations; also called H4K1 (humanized 10A4)) VH: QVQLQQSGAEVKKPGASVRISCKASGYTFTSYYIHWVRQRPGQGLEFIGWIYPGNVNAKYNEKFKGRATLTTDKSASTAYMELSSLRSEDTAVYFCAIKGGNYDWGQGTLVTVSS VL: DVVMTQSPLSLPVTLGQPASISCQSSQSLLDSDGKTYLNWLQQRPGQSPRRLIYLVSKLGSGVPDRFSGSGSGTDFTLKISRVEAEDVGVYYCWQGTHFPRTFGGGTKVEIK", 12.4),
]
